Would you kindly list Population Fragmented Nuclei (%) for each of these compounds?
test system: U2OS; test: Multiplex assay against U2OS; format: toxicity, cell-based; details: human, 24 h, 1 µM, compound concentration 1 uM, replicate 1
Lab book: enter the figure in %, no units written.

Exercise: Please report the measured Population Fragmented Nuclei (%) for CCCSc1nc(N[C@@H]2C[C@H]2c2ccc(F)c(F)c2)c2nnn([C@@H]3C[C@H](OCCO)[C@@H](O)[C@H]3O)c2n1 [TICAGRELOR] tested on U2OS.
Solution: 7

Exercise: Please report the measured Population Fragmented Nuclei (%) for COC(=O)C1=C(C)NC(C)=C(C(=O)OCCCN2CCC(c3ccccc3)(c3ccccc3)CC2)[C@H]1c1cccc([N+](=O)[O-])c1 [NIGULDIPINE] tested on U2OS.
Solution: 17

Exercise: Please report the measured Population Fragmented Nuclei (%) for "O=c1cc(N2CCOCC2)oc2c(-c3cccc4c3sc3ccccc34)cccc12" tested on U2OS.
Solution: 14

Exercise: Please report the measured Population Fragmented Nuclei (%) for COc1ccccc1CN[C@H]1C2CCN(CC2)[C@H]1C(c1ccccc1)c1ccccc1 [CP-96345] tested on U2OS.
Solution: 12

Exercise: Please report the measured Population Fragmented Nuclei (%) for CC(C)CC(=O)Nc1[nH]nc2c1CN(C(=O)C1CCN(C)CC1)C2(C)C [PHA-793887] tested on U2OS.
Solution: 5

Exercise: Please report the measured Population Fragmented Nuclei (%) for C[C@]12CC[C@@H]3c4ccc(O)cc4CC[C@H]3[C@@H]1CC[C@@H]2O [ESTRADIOL] tested on U2OS.
Solution: 7

Exercise: Please report the measured Population Fragmented Nuclei (%) for Cc1c[nH]c2nccc(Oc3c(F)cc(Nc4cc(Cl)nc(N)n4)cc3F)c12 [BAY-549] tested on U2OS.
Solution: 13

Exercise: Please report the measured Population Fragmented Nuclei (%) for CC1=C(C(=O)Nc2cc3cn[nH]c3cc2F)C(c2ccc(C(F)(F)F)cc2)CC(=O)N1 (stereo not drawn) tested on U2OS.
Solution: 8

----------
tested on: HEK-293T; assay: Multiplex assay against HEK293T; format: toxicity, cell-based; conditions: human, 24 h, 1 µM, compound concentration 1 uM, replicate 2
Would you kindly list Total Cell Count for each of these compounds?
// keep it numeric: no unit symbol after the value

Exercise: Complete the entry with Total Cell Count for Cc1ccccc1C(c1ccccc1C)N1C2CCC1CC(O)(c1ccccc1)C2 (centres undefined)
Solution: 355

Exercise: Complete the entry with Total Cell Count for "CCc1ccc(OCc2ccccc2C(=O)Nc2ccc3nc(C)cc(N)c3c2)cc1.Cl"
Solution: 141

Exercise: Complete the entry with Total Cell Count for "CCOC(=O)Nc1cc(-c2ccc(C)c(NS(C)(=O)=O)c2)nn2c(C)nnc12"
Solution: 3024

Exercise: Complete the entry with Total Cell Count for COC(=O)C1=C(C)NC(C)=C(C(=O)OCCCN2CCC(c3ccccc3)(c3ccccc3)CC2)[C@H]1c1cccc([N+](=O)[O-])c1 [NIGULDIPINE]
Solution: 181

Exercise: Complete the entry with Total Cell Count for CCCSc1nc(N[C@@H]2C[C@H]2c2ccc(F)c(F)c2)c2nnn([C@@H]3C[C@H](OCCO)[C@@H](O)[C@H]3O)c2n1 [TICAGRELOR]
Solution: 257

Exercise: Complete the entry with Total Cell Count for Cc1c[nH]c2nccc(Oc3c(F)cc(Nc4cc(Cl)nc(N)n4)cc3F)c12 [BAY-549]
Solution: 255

Exercise: Complete the entry with Total Cell Count for "Cc1nc(N2CC[C@H](O)C2)ncc1-c1cc(C(F)(F)F)cc2[nH]ncc12"
Solution: 1975

Exercise: Complete the entry with Total Cell Count for C=CC(=O)Nc1ccc2[nH]c(=O)n(C3CCN(Cc4ccc(-c5nc6cc[nH]c(=O)c6cc5-c5ccccc5)cc4)CC3)c2c1 [Borussertib]
Solution: 2108

Exercise: Complete the entry with Total Cell Count for "CNC(=O)Nc1ccc(-c2nc(N3CC4CCC(C3)O4)c3cnn(C4CCC5(CC4)OCCO5)c3n2)cc1"
Solution: 158

----------
test system: U2OS; assay: Multiplex assay against U2OS; format: toxicity, cell-based; conditions: human, 48 h, 1 µM, compound concentration 1 uM, replicate 1
Value Kind: Population Fragmented Nuclei (%)
Put your answer as a value accompanied by its unit after it.

Exercise: Complete the entry with Population Fragmented Nuclei (%) for "CCCSc1nc(N[C@@H]2C[C@H]2c2ccc(F)c(F)c2)c2nnn([C@@H]3C[C@H](OCCO)[C@@H](O)[C@H]3O)c2n1"
Solution: 6%

Exercise: Complete the entry with Population Fragmented Nuclei (%) for "COc1cc(Nc2nccc(-c3cnn4nc(OC)ccc34)n2)cc(C(F)(F)F)c1"
Solution: 16%

Exercise: Complete the entry with Population Fragmented Nuclei (%) for CCc1nn(CCCN2CCN(c3cccc(Cl)c3)CC2)c(=O)n1CCOc1ccccc1.Cl [NEFAZODONE HYDROCHLORIDE]
Solution: 9%

----------
tested on: U2OS; assay: Multiplex assay against U2OS; assay type: toxicity, cell-based; conditions: human, 24 h, 1 µM, compound concentration 1 uM, replicate 2
Value Kind: Total Cell Count
// keep it numeric: no unit symbol after the value

Exercise: Complete the entry with Total Cell Count for "COc1cc(Nc2nccc(-c3cnn4nc(OC)ccc34)n2)cc(C(F)(F)F)c1"
Solution: 43

Exercise: Complete the entry with Total Cell Count for "CC(C)c1noc(N2CCC(COc3ccc(-c4ccc(S(C)(=O)=O)cc4)nc3)CC2)n1"
Solution: 103

Exercise: Complete the entry with Total Cell Count for "O=c1cc(N2CCOCC2)oc2c(-c3cccc4c3sc3ccccc34)cccc12"
Solution: 86

Exercise: Complete the entry with Total Cell Count for "CNC(=O)Nc1ccc2c(c1)[C@@]1(CC2)OC(=O)N(CC(=O)N(Cc2ccc(F)cc2)[C@@H](C)C(F)(F)F)C1=O"
Solution: 115

----------
Would you kindly list Population Apoptotic (%) for each of these compounds?
tested on: U2OS; experiment: Multiplex assay against U2OS; assay type: toxicity, cell-based; settings: human, 12 h, 10 µM, compound concentration 10 uM, replicate 1
Lab book: enter the figure in %, no units written.

Exercise: Complete the entry with Population Apoptotic (%) for "CCc1ccc(OCc2ccccc2C(=O)Nc2ccc3nc(C)cc(N)c3c2)cc1.Cl"
Solution: 78

Exercise: Complete the entry with Population Apoptotic (%) for "CC(C)Oc1ccccc1C(=O)Nc1ccccc1C(=O)Nc1cccc(S(=O)(=O)C(F)(F)F)c1"
Solution: 68

Exercise: Complete the entry with Population Apoptotic (%) for C=CC(=O)Nc1ccc2[nH]c(=O)n(C3CCN(Cc4ccc(-c5nc6cc[nH]c(=O)c6cc5-c5ccccc5)cc4)CC3)c2c1 [Borussertib]
Solution: 54

Exercise: Complete the entry with Population Apoptotic (%) for "CNC(=O)Nc1ccc(-c2nc(N3CC4CCC(C3)O4)c3cnn(C4CCC5(CC4)OCCO5)c3n2)cc1"
Solution: 40

Exercise: Complete the entry with Population Apoptotic (%) for CC(C)c1noc(N2CCC(COc3ccc(-c4ccc(S(C)(=O)=O)cc4)nc3)CC2)n1 [GSK-1292263]
Solution: 54

Exercise: Complete the entry with Population Apoptotic (%) for C[C@]12CC[C@@H]3c4ccc(O)cc4CC[C@H]3[C@@H]1CC[C@@H]2O [ESTRADIOL]
Solution: 30

Exercise: Complete the entry with Population Apoptotic (%) for COc1ccc(-c2ccc3ncc4c(c3c2)n(-c2ccc(N3CCNCC3)c(C(F)(F)F)c2)c(=O)n4C)cn1.O=C(O)/C=C\C(=O)O [BGT-226]
Solution: 97

Exercise: Complete the entry with Population Apoptotic (%) for "COc1cc(Nc2nccc(-c3cnn4nc(OC)ccc34)n2)cc(C(F)(F)F)c1"
Solution: 60

----------
system: Fibroblast; experiment: Multiplex assay against human fibroblast; format: toxicity, cell-based; conditions: 48 h, 1 µM, compound concentration 1 uM, replicate 2
Would you kindly list Population Membrane Permeable-Phenotype (%) for each of these compounds?
Lab book: enter the figure in %, no units written.

Exercise: Complete the entry with Population Membrane Permeable-Phenotype (%) for "CNC(=O)Nc1ccc(-c2nc(N3CC4CCC(C3)O4)c3cnn(C4CCC5(CC4)OCCO5)c3n2)cc1"
Solution: 10

Exercise: Complete the entry with Population Membrane Permeable-Phenotype (%) for "CCCSc1nc(N[C@@H]2C[C@H]2c2ccc(F)c(F)c2)c2nnn([C@@H]3C[C@H](OCCO)[C@@H](O)[C@H]3O)c2n1"
Solution: 18

Exercise: Complete the entry with Population Membrane Permeable-Phenotype (%) for "Cl.O=C(O)c1cc(-c2ccc(C3CCNCC3)cc2)c2ccc(-c3ccc(C(F)(F)F)cc3)cc2c1"
Solution: 6

Exercise: Complete the entry with Population Membrane Permeable-Phenotype (%) for Cc1cccc(CN2CCN(C(c3ccccc3)c3ccc(Cl)cc3)CC2)c1.Cl.Cl (configuration not stated)
Solution: 6

Exercise: Complete the entry with Population Membrane Permeable-Phenotype (%) for O=C(c1cc2c(cc1F)OC(c1ccc(F)cc1)(c1ccc(Cl)cc1Cl)O2)N1CCOCC1 (configuration not stated)
Solution: 8

Exercise: Complete the entry with Population Membrane Permeable-Phenotype (%) for "COc1cc(Nc2nccc(-c3cnn4nc(OC)ccc34)n2)cc(C(F)(F)F)c1"
Solution: 17

Exercise: Complete the entry with Population Membrane Permeable-Phenotype (%) for Cc1ccc2c(c1)c1c(n2CCc2ccc(C)nc2)CCN(C)C1 [LATREPIRDINE]
Solution: 22

Exercise: Complete the entry with Population Membrane Permeable-Phenotype (%) for "COc1ccc(-c2ccc3ncc4c(c3c2)n(-c2ccc(N3CCNCC3)c(C(F)(F)F)c2)c(=O)n4C)cn1.O=C(O)/C=C\C(=O)O"
Solution: 19

Exercise: Complete the entry with Population Membrane Permeable-Phenotype (%) for CC1=C(C(=O)Nc2cc3cn[nH]c3cc2F)C(c2ccc(C(F)(F)F)cc2)CC(=O)N1 (configuration not stated)
Solution: 6

Exercise: Complete the entry with Population Membrane Permeable-Phenotype (%) for "CN1CCN(Cc2ccc(Nc3ncc(Cl)c(Nc4ccccc4S(=O)(=O)N(C)C)n3)cc2)CC1"
Solution: 24

Exercise: Complete the entry with Population Membrane Permeable-Phenotype (%) for "COc1ccccc1CN[C@H]1C2CCN(CC2)[C@H]1C(c1ccccc1)c1ccccc1"
Solution: 25

Exercise: Complete the entry with Population Membrane Permeable-Phenotype (%) for "CC(C)(C)NC[C@H](O)COc1nsnc1N1CCOCC1"
Solution: 14

Exercise: Complete the entry with Population Membrane Permeable-Phenotype (%) for "Cc1c[nH]c2nccc(Oc3c(F)cc(Nc4cc(Cl)nc(N)n4)cc3F)c12"
Solution: 10

Exercise: Complete the entry with Population Membrane Permeable-Phenotype (%) for "O=c1cc(N2CCOCC2)oc2c(-c3cccc4c3sc3ccccc34)cccc12"
Solution: 17

Exercise: Complete the entry with Population Membrane Permeable-Phenotype (%) for COc1cc2ncn(-c3cc(OCc4ccccc4C(F)(F)F)c(C(N)=O)s3)c2cc1OC [GW843682X]
Solution: 13

Exercise: Complete the entry with Population Membrane Permeable-Phenotype (%) for "COC(=O)C1=C(C)NC(C)=C(C(=O)OCCCN2CCC(c3ccccc3)(c3ccccc3)CC2)[C@H]1c1cccc([N+](=O)[O-])c1"
Solution: 0

Exercise: Complete the entry with Population Membrane Permeable-Phenotype (%) for CCc1nn(CCCN2CCN(c3cccc(Cl)c3)CC2)c(=O)n1CCOc1ccccc1.Cl [NEFAZODONE HYDROCHLORIDE]
Solution: 6
